Numbers sourced from the supplement of paper PMC12669032.

Test system: Bacteroides caccae
Experiment: growth AUC relative to DMSO control (median of replicates) (fraction); higher = more growth (less inhibition), active = hit call of the paper
Conditions: 20 µM; 24 h
QUANTITY NAME: growth AUC
Answer as a number with no unit attached.

Look over these answered cases.
Cc1[nH]oc(=O)c1N=Nc1ccccc1Cl | 0.996
CC(C)N(C(=O)CS(=O)(=O)[O-])c1ccc(F)cc1.[Na+] | 1.02
COC(=O)c1ccc(CNS(C)(=O)=O)cc1S(=O)(=O)NC(=O)Nc1nc(OC)cc(OC)n1 | 0.988
CCSc1nc(NC(C)C)nc(NC(C)C)n1 | 1.01
CC(C)N(C(=O)CS(=O)(=O)[O-])c1ccccc1.[Na+] | 1.02
COC(=O)C(C)Oc1cc(Cl)c(Cl)cc1Cl (stereo not given) | 0.982
O=C(O)COc1cc(N2C(=O)C3=C(CCCC3)C2=O)c(F)cc1Cl | 0.999
CNC(=O)/C(=N/OC)c1ccccc1COc1cc(C)ccc1C | 1

Measured growth AUC for this entry CCCCCCCC/C=C\CCCCCCCCCCCC(=O)O on Bacteroides caccae: 1.01

Entry CCNc1nc(NC(C)CC)nc(OC)n1 (stereo not given) , tested on Bacteroides caccae, has a reported growth AUC of 1.02

Form field growth AUC for item COc1cc(OC)c(Cl)cc1N on Bacteroides caccae: 0.994

The observed growth AUC for CCCCOCN(C(=O)CS(=O)(=O)[O-])c1c(CC)cccc1CC.[Na+] when tested with Bacteroides caccae stands at 0.997

Bench note, Bacteroides caccae: entry COC(=O)c1csc(C)c1S(=O)(=O)NC(=O)n1nc(OC)n(C)c1=O , its growth AUC = 0.981

Noted growth AUC for COc1cc(OC)nc(NC(=O)NS(=O)(=O)c2c(Cl)nc3ccccn23)n1 , tested on Bacteroides caccae: 1.02

Assay Bacteroides caccae, sample Br[C@@H]1CC[C@H](Br)[C@H](Br)CC[C@@H](Br)[C@@H](Br)CC[C@H]1Br , growth AUC read: 1.01
